experiment_description: pH of the filtrated solutions (pH indication paper)
Type: physicochemical
test_parameters: pH of the filtrated solution
metric_name: pH
Just the number, please, no unit after it.

Guide cases for pH, answers given:
compound	pH
CN1C(=O)c2c(nn(Cc3ccc(-c4cccc(F)n4)cc3)c2Nc2ccccc2)N2C1=N[C@@H]1CCC[C@@H]12.O=C(O)c1cc(=O)[nH]c(=O)[nH]1.O=C(O)c1cc(=O)[nH]c(=O)[nH]1 [Orotate Salt 1]	5
CN1C(=O)c2c(nn(Cc3ccc(-c4cccc(F)n4)cc3)c2Nc2ccccc2)N2C1=N[C@@H]1CCC[C@@H]12.O=C(O)CCC(=O)C(=O)O [Oxo-glutarate Salt 1]	3

INPUT: Please look up its pH: CN1C(=O)c2c(nn(Cc3ccc(-c4cccc(F)n4)cc3)c2Nc2ccccc2)N2C1=N[C@@H]1CCC[C@@H]12.Cl [HCl Salt 4]
OUTPUT: 4

INPUT: Follow-up item: CN1C(=O)c2c(nn(Cc3ccc(-c4cccc(F)n4)cc3)c2Nc2ccccc2)N2C1=N[C@@H]1CCC[C@@H]12.O=C(O)c1ccccc1 [Benzoate Salt 1]
OUTPUT: 5

INPUT: Follow-up item: CN1C(=O)c2c(nn(Cc3ccc(-c4cccc(F)n4)cc3)c2Nc2ccccc2)N2C1=N[C@@H]1CCC[C@@H]12.O=C(O)c1ccccc1O [Salicylate Salt 1]
OUTPUT: 5

INPUT: Follow-up item: CN1C(=O)c2c(nn(Cc3ccc(-c4cccc(F)n4)cc3)c2Nc2ccccc2)N2C1=N[C@@H]1CCC[C@@H]12.Nc1ccc(C(=O)O)c(O)c1 [Aminosalicylate Salt 1]
OUTPUT: 5

INPUT: Follow-up item: CN1C(=O)c2c(nn(Cc3ccc(-c4cccc(F)n4)cc3)c2Nc2ccccc2)N2C1=N[C@@H]1CCC[C@@H]12.O=C(O)c1ccc2ccccc2c1O [Xinafoate Salt 1]
OUTPUT: 7

INPUT: Follow-up item: CN1C(=O)c2c(nn(Cc3ccc(-c4cccc(F)n4)cc3)c2Nc2ccccc2)N2C1=N[C@@H]1CCC[C@@H]12.O=C(O)C[C@H](O)C(=O)O [Malate Salt 1]
OUTPUT: 4

INPUT: Follow-up item: CN1C(=O)c2c(nn(Cc3ccc(-c4cccc(F)n4)cc3)c2Nc2ccccc2)N2C1=N[C@@H]1CCC[C@@H]12.O=C(O)CCCCC(=O)O [Adipate Salt 1]
OUTPUT: 4

INPUT: Follow-up item: CN1C(=O)c2c(nn(Cc3ccc(-c4cccc(F)n4)cc3)c2Nc2ccccc2)N2C1=N[C@@H]1CCC[C@@H]12.O=S(=O)(O)c1ccccc1 [Besylate Salt 1]
OUTPUT: 1

INPUT: Follow-up item: CCS(=O)(=O)O.CN1C(=O)c2c(nn(Cc3ccc(-c4cccc(F)n4)cc3)c2Nc2ccccc2)N2C1=N[C@@H]1CCC[C@@H]12 [Esylate Salt 1]
OUTPUT: 5

INPUT: Follow-up item: CN1C(=O)c2c(nn(Cc3ccc(-c4cccc(F)n4)cc3)c2Nc2ccccc2)N2C1=N[C@@H]1CCC[C@@H]12.O=C(O)CCC(=O)O [Succinate Salt 2]
OUTPUT: 4

INPUT: Follow-up item: CN1C(=O)c2c(nn(Cc3ccc(-c4cccc(F)n4)cc3)c2Nc2ccccc2)N2C1=N[C@@H]1CCC[C@@H]12.O=S(=O)(O)CCS(=O)(=O)O [Edisylate Salt 1]
OUTPUT: 1

INPUT: Follow-up item: CCCCCC(=O)O.CN1C(=O)c2c(nn(Cc3ccc(-c4cccc(F)n4)cc3)c2Nc2ccccc2)N2C1=N[C@@H]1CCC[C@@H]12 [Caproate Salt 1]
OUTPUT: 5

INPUT: Follow-up item: CC1(C)C2CCC1(CS(=O)(=O)O)C(=O)C2.CN1C(=O)c2c(nn(Cc3ccc(-c4cccc(F)n4)cc3)c2Nc2ccccc2)N2C1=N[C@@H]1CCC[C@@H]12 [Camsylate Salt 2]
OUTPUT: 1

INPUT: Follow-up item: CN1C(=O)c2c(nn(Cc3ccc(-c4cccc(F)n4)cc3)c2Nc2ccccc2)N2C1=N[C@@H]1CCC[C@@H]12.O=C(O)c1cccnc1 [Nicotinate Salt 1]
OUTPUT: 5

INPUT: Follow-up item: CN1C(=O)c2c(nn(Cc3ccc(-c4cccc(F)n4)cc3)c2Nc2ccccc2)N2C1=N[C@@H]1CCC[C@@H]12.O=C(O)C(O)c1ccccc1 [Mandelate Salt 2]
OUTPUT: 4

INPUT: Follow-up item: CN1C(=O)c2c(nn(Cc3ccc(-c4cccc(F)n4)cc3)c2Nc2ccccc2)N2C1=N[C@@H]1CCC[C@@H]12.O=C(O)C(=O)O [Oxalate Salt 2]
OUTPUT: 1

INPUT: Follow-up item: CN1C(=O)c2c(nn(Cc3ccc(-c4cccc(F)n4)cc3)c2Nc2ccccc2)N2C1=N[C@@H]1CCC[C@@H]12.O=C(O)C(=O)O [Oxalate Salt 3]
OUTPUT: 1

====

experiment_description: pH of the filtrated solutions (pH indication paper)
Format: physicochemical
test_parameters: pH of the filtrated solution
metric_name: pH
Just the number, please, no unit after it.

Guide cases for pH, answers given:
compound	recorded_result
CN1C(=O)c2c(nn(Cc3ccc(-c4cccc(F)n4)cc3)c2Nc2ccccc2)N2C1=N[C@@H]1CCC[C@@H]12.Cc1ccc(S(=O)(=O)O)cc1 [Tosylate Salt 1]	1
CN1C(=O)c2c(nn(Cc3ccc(-c4cccc(F)n4)cc3)c2Nc2ccccc2)N2C1=N[C@@H]1CCC[C@@H]12.O=C(O)C(=O)O [Oxalate Salt 1]	4
CN1C(=O)c2c(nn(Cc3ccc(-c4cccc(F)n4)cc3)c2Nc2ccccc2)N2C1=N[C@@H]1CCC[C@@H]12.O=C(O)CCC(=O)O [Succinate Salt 1]	4
CC1(C)C2CCC1(CS(=O)(=O)O)C(=O)C2.CN1C(=O)c2c(nn(Cc3ccc(-c4cccc(F)n4)cc3)c2Nc2ccccc2)N2C1=N[C@@H]1CCC[C@@H]12 [Camsylate Salt 1]	1
CCC(=O)O.CN1C(=O)c2c(nn(Cc3ccc(-c4cccc(F)n4)cc3)c2Nc2ccccc2)N2C1=N[C@@H]1CCC[C@@H]12 [Propionate Salt 1]	5

INPUT: Please look up its pH: CN1C(=O)c2c(nn(Cc3ccc(-c4cccc(F)n4)cc3)c2Nc2ccccc2)N2C1=N[C@@H]1CCC[C@@H]12.O=C(O)C(O)c1ccccc1 [Mandelate Salt 1]
OUTPUT: 2

INPUT: Follow-up item: CN1C(=O)c2c(nn(Cc3ccc(-c4cccc(F)n4)cc3)c2Nc2ccccc2)N2C1=N[C@@H]1CCC[C@@H]12.Cl [HCl Salt 1]
OUTPUT: 4

INPUT: Follow-up item: CN1C(=O)c2c(nn(Cc3ccc(-c4cccc(F)n4)cc3)c2Nc2ccccc2)N2C1=N[C@@H]1CCC[C@@H]12.O=C(O)[C@@H](O)[C@H](O)[C@H](O)[C@@H](O)C(=O)O [Galactarate Salt 1]
OUTPUT: 5

INPUT: Follow-up item: CN1C(=O)c2c(nn(Cc3ccc(-c4cccc(F)n4)cc3)c2Nc2ccccc2)N2C1=N[C@@H]1CCC[C@@H]12.O=C(O)c1ccc2ccccc2c1O [Xinafoate Salt 3]
OUTPUT: 7

====

experiment_description: pH of the filtrated solutions (pH indication paper)
Format: physicochemical
test_parameters: pH of the filtrated solution
Method: Samples are filtered and diluted (in a mixture of acetonitrile/water (1/1)) for LC analysis. Solubilities are calculated with the use of a calibration line. Furthermore, the pH values of the filtrated solutions are determined using pH indication paper.
metric_name: pH
Just the number, please, no unit after it.

> print(dat)
                                   compound  metric.name  recorded.result
1  CN1C(=O)c2c(nn(Cc3ccc(-c4cccc(F)n4)cc3)c2Nc2ccccc2)N2C1=N[C@@H]1CCC[C@@H]12.O=P(O)(O)O [Phosphate Salt Control]           pH                5

Let us examine a further case.
INPUT: Please look up its pH: CN1C(=O)c2c(nn(Cc3ccc(-c4cccc(F)n4)cc3)c2Nc2ccccc2)N2C1=N[C@@H]1CCC[C@@H]12.Cl [HCl Salt 3]
OUTPUT: 3

====

experiment_description: pH of the filtrated solutions (pH indication paper)
Format: physicochemical
test_parameters: pH of the filtrated solution
Listed here are molecules together with their documented pH.

molecule	recorded_result
CN1C(=O)c2c(nn(Cc3ccc(-c4cccc(F)n4)cc3)c2Nc2ccccc2)N2C1=N[C@@H]1CCC[C@@H]12.O=S(=O)(O)O [Sulfate Salt 1]	1
CN1C(=O)c2c(nn(Cc3ccc(-c4cccc(F)n4)cc3)c2Nc2ccccc2)N2C1=N[C@@H]1CCC[C@@H]12.CN1C(=O)c2c(nn(Cc3ccc(-c4cccc(F)n4)cc3)c2Nc2ccccc2)N2C1=N[C@@H]1CCC[C@@H]12.O=C(O)/C=C/C(=O)O [Fumarate Salt 1]	2
CN1C(=O)c2c(nn(Cc3ccc(-c4cccc(F)n4)cc3)c2Nc2ccccc2)N2C1=N[C@@H]1CCC[C@@H]12.O=C(O)c1ccncc1 [Isonicotinate Salt 1]	5
CCCCCCCCCCCC(=O)O.CN1C(=O)c2c(nn(Cc3ccc(-c4cccc(F)n4)cc3)c2Nc2ccccc2)N2C1=N[C@@H]1CCC[C@@H]12 [Laurate Salt 1]	5
CC(O)C(=O)O.CN1C(=O)c2c(nn(Cc3ccc(-c4cccc(F)n4)cc3)c2Nc2ccccc2)N2C1=N[C@@H]1CCC[C@@H]12 [Lactate Salt 1]	4-5
CCCCCCCC(=O)O.CN1C(=O)c2c(nn(Cc3ccc(-c4cccc(F)n4)cc3)c2Nc2ccccc2)N2C1=N[C@@H]1CCC[C@@H]12 [Caprylate Salt 1]	5
CN1C(=O)c2c(nn(Cc3ccc(-c4cccc(F)n4)cc3)c2Nc2ccccc2)N2C1=N[C@@H]1CCC[C@@H]12.O=C(O)C(F)(F)F [Trifluoroacetate Salt 1]	7
CN1C(=O)c2c(nn(Cc3ccc(-c4cccc(F)n4)cc3)c2Nc2ccccc2)N2C1=N[C@@H]1CCC[C@@H]12.Cc1ccc(S(=O)(=O)O)cc1 [Tosylate Salt 2]	5
CN1C(=O)c2c(nn(Cc3ccc(-c4cccc(F)n4)cc3)c2Nc2ccccc2)N2C1=N[C@@H]1CCC[C@@H]12.O=S(=O)(O)c1cccc2c(S(=O)(=O)O)cccc12 [Napadisylate Salt 1]	1
CN1C(=O)c2c(nn(Cc3ccc(-c4cccc(F)n4)cc3)c2Nc2ccccc2)N2C1=N[C@@H]1CCC[C@@H]12.CS(=O)(=O)O [Mesylate Salt 1]	5

Let us examine a further case.
INPUT: Please look up its pH: CN1C(=O)c2c(nn(Cc3ccc(-c4cccc(F)n4)cc3)c2Nc2ccccc2)N2C1=N[C@@H]1CCC[C@@H]12.O=C(O)c1ccc2ccccc2c1O [Xinafoate Salt 2]
OUTPUT: 7
